The threshold is inclusive: logP of exactly 2 counts as Yes; values below receive No.

Is reported logP greater than or equal to 2 here: "CNC(=O)N1C(=O)CN=C(c2ccccc2)c2cc([N+](=O)[O-])ccc21" No

Is reported logP greater than or equal to 2 here: CCOC1N=C(c2ccccc2)c2cc(Cl)ccc2N(CCCl)C1=O (stereo unspecified) Yes

Is reported logP greater than or equal to 2 here: O=C1Nc2ccc(Cl)cc2C(c2ccccc2F)=NC1O (stereo unspecified) No

Is reported logP greater than or equal to 2 here: O=C1C(O)N=C(c2ccccc2)c2cc([N+](=O)[O-])ccc2N1CCO (stereo unspecified) No

Is reported logP greater than or equal to 2 here: CCOC1N=C(c2ccccc2)c2cc(Cl)ccc2N(CCO)C1=O (stereo unspecified) Yes

Is reported logP greater than or equal to 2 here: "O=C1CN=C(c2ccccc2)c2cc(Cl)ccc2N1CC(F)(F)F" Yes

---

result type: logP
// no unit, no text: just the number

Recorded logP of CC(=O)OC1N=C(c2ccccc2)c2cc(Cl)ccc2N(CCO)C1=O (stereo unspecified) , please. 2.45

Recorded logP of "O=C1C[N+]([O-])=C(c2ccccc2)c2cc(Cl)ccc2N1CCO" , please. 0.82

Recorded logP of CC(=O)OCCCN1C(=O)C(OC(C)=O)N=C(c2ccccc2)c2cc(Cl)ccc21 (stereo unspecified) , please. 3.08

Recorded logP of CN1C(=O)C(O)N=C(c2ccccc2Cl)c2cc(Cl)ccc21 (stereo unspecified) , please. 2.5

Recorded logP of COc1cc(C(=O)OC2N=C(c3ccccc3)c3cc(Cl)ccc3NC2=O)cc(OC)c1OC (stereo unspecified) , please. 3.75

Recorded logP of CN1C(=O)C(O)N=C(c2ccccc2F)c2cc(Cl)ccc21 (stereo unspecified) , please. 2.09

Recorded logP of O=C1C(O)N=C(c2ccccc2)c2cc(Cl)ccc2N1CCCO (stereo unspecified) , please. 1.68

Recorded logP of CCN(CC)CCN1C(=O)C(O)N=C(c2ccccc2)c2cc(Cl)ccc21 (stereo unspecified) , please. 1.7

Recorded logP of CCCC(CCC)C(=O)OC1N=C(c2ccccc2)c2cc(Cl)ccc2NC1=O (stereo unspecified) , please. 4.94

Recorded logP of O=C1C(O)N=C(c2ccccc2Cl)c2cc(Cl)ccc2N1CCO (stereo unspecified) , please. 2.16

Recorded logP of "O=C(O)CCC(=O)OCCN1C(=O)C[N+]([O-])=C(c2ccccc2)c2cc(Cl)ccc21" , please. 0.36
